I'd be grateful if you could share measured In vitro activity relative to native peptide (%), vs. GIP (cAMP EC50) for these entries.
# assayed.target: T1, human GIP receptor (human, UniProt P48546 22-466)
# T1 sequence (looked up): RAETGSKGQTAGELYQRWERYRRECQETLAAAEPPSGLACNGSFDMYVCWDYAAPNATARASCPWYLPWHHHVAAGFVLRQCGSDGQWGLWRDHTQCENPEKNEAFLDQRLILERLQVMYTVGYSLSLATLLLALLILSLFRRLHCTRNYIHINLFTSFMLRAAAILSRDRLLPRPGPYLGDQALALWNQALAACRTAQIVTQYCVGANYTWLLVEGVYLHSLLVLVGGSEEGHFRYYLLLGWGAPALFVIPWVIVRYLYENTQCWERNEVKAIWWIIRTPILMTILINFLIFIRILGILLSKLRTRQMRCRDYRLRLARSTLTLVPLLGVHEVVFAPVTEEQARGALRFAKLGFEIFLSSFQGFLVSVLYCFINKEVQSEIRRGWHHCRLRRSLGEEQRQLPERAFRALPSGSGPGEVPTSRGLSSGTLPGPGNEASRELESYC
# test.details: cell-based or functional assay
Positions of bridges follow the written chain, without caps; N, C: chain ends. Non-standard residues stand in square brackets, D forms with d. No end group written: not given here. *: point of attachment. Acetyl(2-(4-imidazolyl)) = O=C(Cc1c[nH]cn1)*; Aib = CC(C)(N)C(=O)O

Please look up its In vitro activity relative to native peptide (%), vs. GIP (cAMP EC50): Y[Aib]QGTFTSDYSKYLDEKAAKDFVQWLLDHHPSSGQPPPSC (bridge 16-20) [trigonal agonist of SEQ ID NO: 77]
35.5%

I am curious: what In vitro activity relative to native peptide (%), vs. GIP (cAMP EC50) value has been reported for H[Aib]QGTFTSDYSKYLDGQHAQCFVAWLLAGGGPSSGAPPPS [trigonal agonist of SEQ ID NO: 39] ?
< 0.1%

Which In vitro activity relative to native peptide (%), vs. GIP (cAMP EC50) is listed for H[Aib]QGTFTSDVSKYLDGQAAKEFVAWLLKGC [trigonal agonist of SEQ ID NO: 7] ?
< 0.1%

// lookup In vitro activity relative to native peptide (%), vs. GIP (cAMP EC50) for H[Aib]QGTFTSDYSKYLDEKAQKEFVQWLLDTC (bridge 16-20) [trigonal agonist of SEQ ID NO: 30]
0.8%

Give the measured In vitro activity relative to native peptide (%), vs. GIP (cAMP EC50) of {Acetyl(2-(4-imidazolyl))}-GEGTFTSDLSKYLDSRRQQLFVQWLKAGGPSSGAPPPSHG [trigonal agonist of SEQ ID NO: 11] .
< 0.1%

Returns the measured In vitro activity relative to native peptide (%), vs. GIP (cAMP EC50) for the input binder. Input: {Acetyl(2-(4-imidazolyl))}-[Aib]QGTFTSDKSKYLDERAAQDFVQWLLDGGPSSGAPPPS [trigonal agonist of SEQ ID NO: 62]
< 0.1%

This collection of values is drawn from patent US20230390362A1.
